Tested system: Genome polyprotein (Dengue virus type 2 (strain 16681-PDK53))
Procedure text: flavivirus cap methylation enzyme inhibition – biochemical, confirmation dose response, primary screen (AID 588689)
Condition details: Dengue-2 NS5 methyltransferase capping enzyme assay, at 25 µM, active compounds read high
About 1,000 (0.29%) of roughly 340,000 compounds were called active. Not all results are given here. Measured potencies and affinities stand elsewhere.
Recorded endpoint: inhibition (%)
State the answer as a number, implicitly in %.

Tested system Genome polyprotein (Dengue virus type 2 (strain 16681-PDK53)); inhibition recorded for O=C(c1ccccc1NS(=O)(=O)c1cccc([N+](=O)[O-])c1)N1CCCC1 was -1.62

# value of inhibition, Genome polyprotein (Dengue virus type 2 (strain 16681-PDK53)), item CC1(C)CC(=O)C2=C(C1)c1c(ccc3ccccc13)NC2c1ccco1 (stereo not drawn) = -4.19

Fill in: Genome polyprotein (Dengue virus type 2 (strain 16681-PDK53)) inhibition for COc1ccc(C=O)cc1OS(=O)(=O)c1ccccc1[N+](=O)[O-] = 11

Bench note, Genome polyprotein (Dengue virus type 2 (strain 16681-PDK53)): entry O=C(NNc1ccccc1)c1ccccc1 , its inhibition = -0.81

Value sought: inhibition, system Genome polyprotein (Dengue virus type 2 (strain 16681-PDK53)), item CC1(C)CC(=O)C2=C(C1)c1c(ccc3ccccc13)NC2c1ccc(C(=O)O)cc1 (stereo not drawn) . Result: 2.04

Reading of inhibition for CN(CCO)c1cc(Sc2nc3ccccc3s2)c2nonc2c1[N+](=O)[O-] with Genome polyprotein (Dengue virus type 2 (strain 16681-PDK53)): 48.2

Next:
The recorded inhibition with Genome polyprotein (Dengue virus type 2 (strain 16681-PDK53)) for COC(=O)c1c(C(=O)OC)c2ccccn2c1C(=O)c1ccccc1 was -4.66

Entry CN(C)c1ccc(/C=C/C(=O)c2ccccc2)cc1[N+](=O)[O-] ; assay system Genome polyprotein (Dengue virus type 2 (strain 16681-PDK53)); inhibition recorded at 7.8

# inhibition measured on Genome polyprotein (Dengue virus type 2 (strain 16681-PDK53)) for item COC(=O)c1cccc(N2C(=O)C3CC=CCC3C2=O)c1 (stereo not drawn) = -7.22

Value (inhibition, Genome polyprotein (Dengue virus type 2 (strain 16681-PDK53))) for record COc1ccccc1/C=c1\sc2nc(-c3ccccc3OC)nn2c1=O = 5.01

Measured inhibition (Genome polyprotein (Dengue virus type 2 (strain 16681-PDK53))), entry O=C(CSc1nc2c(c(=O)[nH]1)CCC2)Nc1cccc(Cl)c1 : -8.06

O=C1NC(=O)c2cc(Oc3ccc([N+](=O)[O-])cc3)ccc21 on Genome polyprotein (Dengue virus type 2 (strain 16681-PDK53)) gives inhibition = 0.39

Entry COC(=O)CSc1nnc(-c2ccc(S(=O)(=O)N3CCCC3)cc2)o1 ; assay system Genome polyprotein (Dengue virus type 2 (strain 16681-PDK53)); inhibition recorded at -3.25

Entry Cc1c(C2(O)CCCCC2)[nH]c2ccc(C#N)cc12 : inhibition on Genome polyprotein (Dengue virus type 2 (strain 16681-PDK53)) = 1.37

Entry Cc1cc(C)cc(NC(=O)c2ccc(NC(=O)c3ccco3)cc2)c1 under Genome polyprotein (Dengue virus type 2 (strain 16681-PDK53)) had inhibition of -0.32

Lab entry: Genome polyprotein (Dengue virus type 2 (strain 16681-PDK53)) assay, compound COC(=O)c1cccc(N2C(=O)c3cccnc3C2=O)c1 , inhibition = 1.12

inhibition on Genome polyprotein (Dengue virus type 2 (strain 16681-PDK53)) for COc1ccc(Cl)cc1Nc1nc(-c2sc(NC(=O)C(C)(C)C)nc2C)cs1 is -12

# inhibition measured on Genome polyprotein (Dengue virus type 2 (strain 16681-PDK53)) for item O=C(NN=C1CCCC1)C(=O)Nc1cccc(C(F)(F)F)c1 = -3.35

Summary: Cc1nc2ccccc2n1CC(=O)NC(C)C1CC2CCC1C2 (stereo not drawn) , Genome polyprotein (Dengue virus type 2 (strain 16681-PDK53)), inhibition = -6.66

Tested on Genome polyprotein (Dengue virus type 2 (strain 16681-PDK53)): O=C1Nc2ccccc2/C1=C/c1ccc([N+](=O)[O-])cc1 . Observed inhibition: -15.7

Result for O=C1C(Cl)=C(N2CCCCCC2)C(=O)N1c1ccc(Br)cc1 , tested on Genome polyprotein (Dengue virus type 2 (strain 16681-PDK53)), inhibition: 4.71

With Genome polyprotein (Dengue virus type 2 (strain 16681-PDK53)) as the test system, CC(=O)Nc1ccccc1NS(=O)(=O)c1ccc(Cl)cc1 showed inhibition of -10.2

Response field inhibition (Genome polyprotein (Dengue virus type 2 (strain 16681-PDK53))) for item C=CCOc1ccc(/C=C\c2nc(O)c([N+](=O)[O-])c(=O)[nH]2)cc1OC : 0.57

Sample COc1cc(NC2=CC(=O)CC(C)(C)C2)cc(OC)c1OC , system: Genome polyprotein (Dengue virus type 2 (strain 16681-PDK53)). Its inhibition is 1.61

Reported inhibition (Genome polyprotein (Dengue virus type 2 (strain 16681-PDK53))) for entry CCOC(=O)c1c(NC(=O)/C=C/C(=O)O)sc(C)c1-c1ccc(F)cc1 is 23.7

Values were extracted from PubChem BioAssay AID588689.
